Test system: M14 melanoma
Experiment: NCI tumour cell line growth inhibition, 48 h; in the data active means GI50 below about 0.43 µM; inactive means the rest
Please answer using one outcome listed in True (active), False (inactive)

Compound	Classification
N#CC1=C(N)NC(=O)C(C#N)C12Nc1ccccc1S2 (stereo not given)	False

What classification did CN(C)Cc1ccc(NC(=O)c2cncc(C#Cc3cnc(N)c4ncccc34)c2)cc1C(F)(F)F end up with in this test?
True

Name the outcome recorded for CN1CCN(C2=C(Cl)C(=O)c3ccccc3C2=O)CC1 in the assay.
False

Please indicate how the test categorized COc1ccc(CCN2CCCn3c2nc2ccccc2c3=O)cc1 .
True

Give the logged outcome of this assay for the following compound: O=C1/C(=C/c2ccc(F)cc2)COc2ccc(O)c(O)c21
False
